Molecular target: human APJ receptor (Homo sapiens (Human), UniProt P35414)
Sequence (P35414 whole entry): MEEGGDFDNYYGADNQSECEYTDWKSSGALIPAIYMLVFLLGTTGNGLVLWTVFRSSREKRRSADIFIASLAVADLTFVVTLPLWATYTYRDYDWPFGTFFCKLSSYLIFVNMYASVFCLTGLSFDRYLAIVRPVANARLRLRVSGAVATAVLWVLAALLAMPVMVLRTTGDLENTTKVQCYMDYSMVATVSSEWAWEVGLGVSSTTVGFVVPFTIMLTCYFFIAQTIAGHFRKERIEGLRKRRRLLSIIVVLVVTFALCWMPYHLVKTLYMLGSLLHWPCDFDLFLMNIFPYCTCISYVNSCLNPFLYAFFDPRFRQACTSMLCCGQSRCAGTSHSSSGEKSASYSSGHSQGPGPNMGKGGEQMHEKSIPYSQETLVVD
Experiment: biochemical
Conditions: [35S]GTPγS binding, CHO membranes expressing human APJ receptor; read-out: Activity hAPJ SPA EC50 IP
Just a reminder that ties go to no (0): only EC50 strictly below 4 nM counts as yes (1).

Would you please look over these solved cases?
>>> labelvalue("COc1ncnc(OC)c1-n1c(NS(=O)(=O)[C@@H](C)[C@@H](OC(C)C)c2ncc(Cl)cn2)nnc1-c1ccn(C)n1")
"yes (1)"
>>> labelvalue("COc1cccc(OC)c1-n1c(NS(=O)(=O)[C@@H](C)[C@H](OC)c2ncc(Cl)cn2)nnc1-c1n[nH]c2ccccc12")
"no (0)"
>>> labelvalue("COc1cccc(OC)c1-n1c(NS(=O)(=O)CCc2ccc(Cl)cc2)nnc1-c1ncc(Cl)s1")
"no (0)"

A record lists COc1cccc(OC)c1-n1c(NS(=O)(=O)[C@H](C)Cc2ncc(F)cn2)nnc1-c1cnccn1 (single isomer, unassigned) [Example 30.0] . Is its EC50 below 4 nM?
no (0)

Answer whether the molecule "CCO[C@H](c1ncc(C)cn1)[C@H](C)S(=O)(=O)Nc1nnc(-c2cc3n(n2)CCC3)n1-c1c(OC)cccc1OC" has EC50 strictly less than 4 nM
yes (1)

Bench note: check whether CCc1csc(-c2nnc(NS(=O)(=O)[C@H](C)Cc3ncc(F)cn3)n2-c2c(OC)cccc2OC)n1 [Example 106.0] shows EC50 below 4 nM
no (0)

Quick check: EC50 of "COc1cccc(OC)c1-n1c(NS(=O)(=O)CCc2ccc(Cl)cc2)nnc1-c1csc(C)n1" under 4 nM?
no (0)

Is EC50 of "COCC(COC)n1c(NS(=O)(=O)[C@@H](C)[C@H](C)c2cnc(OC)cn2)nnc1-c1ccn(C)n1" strictly below 4 nM?
no (0)

Given "COc1cccc(OC)c1-n1c(NS(=O)(=O)[C@@H](C)[C@H](OC)c2cnc(C)cn2)nnc1-c1cc2n(n1)CCC2" , is recorded EC50 strictly lower than 4 nM?
yes (1)

State whether 4 nM exceeds EC50 recorded for "COc1cccc(OC)c1-n1c(NS(=O)(=O)[C@@H](C)[C@H](OC)c2ncc(C)cn2)nnc1-c1cnn2ccccc12" .
no (0)

Take the molecule "COc1cccc(OC)c1-n1c(NS(=O)(=O)[C@@H](C)[C@H](C)c2ncc(F)cn2)nnc1-c1cnn(C)c1" and say whether its EC50 is less than 4 nM.
yes (1)

# strict comparison: is reported EC50 < 4 nM? input = "COc1ccccc1-n1c(NS(=O)(=O)CCc2ccc(Cl)cc2)nnc1-c1ccc(F)s1"
no (0)

----------
Molecular target: human APJ receptor (Homo sapiens (Human))
Experiment: biochemical
Conditions: [35S]GTPγS binding, CHO membranes expressing human APJ receptor; read-out: Activity hAPJ SPA EC50 IP
valueType: EC50 (nM)
Supply the numeric figure in nM, leaving out any unit text.

In the examples that follow, each entry is paired with its recorded EC50.
>>> quantitativereadout("CCO[C@@H](c1ncc(Cl)cn1)[C@@H](C)S(=O)(=O)Nc1nnc(-c2ccn(C)n2)n1-c1c(OC)cccc1OC (single isomer, unassigned)")
0.75
>>> quantitativereadout("COc1cccc(OC)c1-n1c(NS(=O)(=O)[C@H](C)Cc2ncc(F)cn2)nnc1-c1ccn(C)c1 (single isomer, unassigned) [Example 34.0]")
4.5
>>> quantitativereadout("CCO[C@H](c1ncc(Cl)cn1)[C@H](C)S(=O)(=O)Nc1nnc(-c2cc(C)n[nH]2)n1-c1c(OC)cccc1OC")
1

Specify the recorded EC50 for COc1cccc(OC)c1-n1c(NS(=O)(=O)[C@@H]2C[C@@H](O)CN(c3ncc(F)cn3)C2)nnc1-c1nc(C)cs1 (single isomer, unassigned) , system: human APJ receptor (Homo sapiens (Human)).
3.9

// fetch EC50; item: C=CCO[C@@H](c1ncc(F)cn1)[C@@H](C)S(=O)(=O)Nc1nnc(-c2nc(C)cs2)n1-c1c(OC)cccc1OC (single isomer, unassigned) [Example 169.0] ; system: human APJ receptor (Homo sapiens (Human))
0.46

Recall the reported EC50 of "COc1ncnc(OC)c1-n1c(NS(=O)(=O)[C@@H](C)[C@H](C)c2ncc(Cl)cn2)nnc1-c1ccn(C)n1" on human APJ receptor (Homo sapiens (Human)) and write it down.
0.49

Give the observed EC50 of "COc1cnc([C@H](C)[C@@H](C)S(=O)(=O)Nc2nnc(-c3ccn(C)n3)n2-c2c(OC)cccc2OC)nc1" for human APJ receptor (Homo sapiens (Human)).
25

Jot down EC50 (human APJ receptor (Homo sapiens (Human))) of "COc1cccc(OC)c1-n1c(NS(=O)(=O)[C@@H](C)[C@H](OC)c2ncc(C)cn2)nnc1-c1noc2ccccc12" .
82

Look up human APJ receptor (Homo sapiens (Human)) data: EC50 of COc1ncnc(OC)c1-n1c(NS(=O)(=O)[C@@H](C)[C@H](OC)c2ccc(Cl)cn2)nnc1-c1ccn(C)n1 (single isomer, unassigned) , then report it.
1.3

Lab note: human APJ receptor (Homo sapiens (Human)) assay, enter EC50 for "CCOC(=O)c1ccc(OC)c(-n2c(NS(=O)(=O)CCc3ccc(Cl)cc3)nnc2-c2cccs2)c1" here
6

Fill in EC50 for "COc1cccc(OC)c1-n1c(NS(=O)(=O)CCc2ncc(F)cn2)nnc1-c1nc(C)cs1" tested with human APJ receptor (Homo sapiens (Human)).
2.7

Provide EC50, system human APJ receptor (Homo sapiens (Human)), entry "COCC1(n2c(NS(=O)(=O)[C@@H](C)[C@H](OC)c3ncc(Cl)cn3)nnc2-c2noc3ccccc23)CC1"
8.5

Fill in: EC50 on human APJ receptor (Homo sapiens (Human)), entry "COc1cccc(OC)c1-n1c(NS(=O)(=O)[C@@H](C)[C@H](C)c2ncc(C)cn2)nnc1-c1ccn(C)n1"
0.93

Give measured EC50 for COc1cccc(OC)c1-n1c(NS(=O)(=O)[C@H](C)[C@@H](C)c2ncc(F)cn2)nnc1-c1nc(C)cs1 (single isomer, unassigned) (human APJ receptor (Homo sapiens (Human))).
12

Jot down EC50 (human APJ receptor (Homo sapiens (Human))) of COc1cccc(OC)c1-n1c(NS(=O)(=O)[C@H](C)[C@@H](C)c2ncc(C)cn2)nnc1-c1csc(C)n1 (stereo in doubt) .
0.32

Provide human APJ receptor (Homo sapiens (Human)) EC50 reading for "CCc1csc(-c2nnc(NS(=O)(=O)CCc3ncc(F)cn3)n2-c2c(OC)cccc2OC)n1" .
7

Report EC50 under test system human APJ receptor (Homo sapiens (Human)) for "COc1cccc(OC)c1-n1c(NS(=O)(=O)CCc2ccc(Cl)cc2)nnc1-c1ncc(C)s1" .
236

Please indicate recorded EC50 of "COc1ncnc(OC)c1-n1c(NS(=O)(=O)[C@@H](C)[C@H](C)c2ncc(Cl)cn2)nnc1-c1n[nH]c2ccccc12" measured with human APJ receptor (Homo sapiens (Human)).
14

State EC50 (human APJ receptor (Homo sapiens (Human))) of "COc1cccc(OC)c1-n1c(NS(=O)(=O)CCc2ccc(F)cc2Br)nnc1-c1nccs1" .
24.5

Provenance of the data: patent US11046680B1
